Overview of recorded IC50 for various compounds
Biological target: A2A receptor (Homo sapiens)
Construct: host or cells: CHO-K1 (co-expressing Gα15)
Test: Test 1: inhibitory activity to the A2A receptor, cAMP HTRF in CHO-K1/ADORA2A/Gα15 cells, NECA 50 nM
Type: cell-based
Report as a plain number; the unit µM is understood.

Worked examples follow.
| COMPOUND | TEST_RESULT |
| --- | --- |
| Cc1c(C#N)cccc1-c1nc(N)c(F)c(-c2cn(Cc3cccc(N4CCOCC4)n3)nn2)n1 | 0.005 |
| Cc1c(C#N)cccc1-c1nc(N)c(F)c(-c2cn(Cc3cccc(N4CCC(O)C4)n3)nn2)n1 (centres unmarked) | 0.005 |
| Cc1c(C#N)cccc1-c1nc(N)c(F)c(-c2cn(Cc3ccn(C)n3)nn2)n1 | 0.003 |

Exercise: Item under review: `Cc1c(C#N)cccc1-c1nc(N)c(Cl)c(-c2cn(Cc3cccc(S(C)(=O)=O)c3)nn2)n1` . Reported IC50?
Solution: 0.004

Exercise: Fill in the blank: the reported IC50 of `Cc1c(C#N)cccc1-c1nc(N)c(F)c(-c2cn(Cc3ccn(CC(C)C)n3)nn2)n1` is ____.
Solution: 0.001

Exercise: Find the recorded IC50 belonging to `COCc1cccc(Cn2cc(-c3nc(-c4cccc(C#N)c4C)nc(N)c3F)nn2)n1` and report it.
Solution: 0.001

----------
Biological target: A2A receptor (Homo sapiens)
Construct: host or cells: CHO-K1 (co-expressing Gα15)
Test: Test 1: inhibitory activity to the A2A receptor, cAMP HTRF in CHO-K1/ADORA2A/Gα15 cells, NECA 50 nM
Assay type: cell-based
METRIC: IC50 (µM)
Please state the figure in µM; there is no need to write the unit.

Some solved cases for reference:
| COMPOUND | EXPERIMENTAL_SYSTEM | UNIT_ABBREV | IC50 |
| --- | --- | --- | --- |
| Cc1c(C#N)cccc1-c1nc(N)c(F)c(-c2cn(Cc3cnn(C)n3)nn2)n1 [Compound L-47] | A2A receptor (Homo sapiens) | µM | 0.011 |
| Cc1c(C#N)cccc1-c1nc(N)c(F)c(-c2cn(Cc3ccn(CC4CC4)n3)nn2)n1 [Compound L-39] | A2A receptor (Homo sapiens) | µM | 0.002 |
| Cc1c(C#N)cccc1-c1nc(N)c(F)c(-c2cn(Cc3cccc(C(N)=O)n3)nn2)n1 [Compound L-56] | A2A receptor (Homo sapiens) | µM | 0.007 |

Exercise: # get_value(readout='IC50', item= Cc1c(C#N)cccc1-c1nc(N)c(Cl)c(-c2cn(Cc3ccn(C)n3)nn2)n1 [Compound L-9] )
Solution: 0.001

Exercise: Dear colleague, I am looking for the recorded IC50 of the following compound: Cc1c(C#N)cccc1-c1nc(N)c(F)c(-c2cn(Cc3ccn(CC(F)(F)F)n3)nn2)n1 [Compound L-37]
Solution: 0.002

Exercise: // IC50 lookup, key: Cc1c(C#N)cccc1-c1nc(N)c(F)c(-c2cn(Cc3cc(F)n(C)n3)nn2)n1 [Compound L-21]
Solution: 0.007

----------
Reported IC50 values are given for each entry in this list.
Biological target: A2B receptor (Homo sapiens)
Construct: host or cells: CHO-K1 (co-expressing Gα15)
Sequence (P29275 whole entry): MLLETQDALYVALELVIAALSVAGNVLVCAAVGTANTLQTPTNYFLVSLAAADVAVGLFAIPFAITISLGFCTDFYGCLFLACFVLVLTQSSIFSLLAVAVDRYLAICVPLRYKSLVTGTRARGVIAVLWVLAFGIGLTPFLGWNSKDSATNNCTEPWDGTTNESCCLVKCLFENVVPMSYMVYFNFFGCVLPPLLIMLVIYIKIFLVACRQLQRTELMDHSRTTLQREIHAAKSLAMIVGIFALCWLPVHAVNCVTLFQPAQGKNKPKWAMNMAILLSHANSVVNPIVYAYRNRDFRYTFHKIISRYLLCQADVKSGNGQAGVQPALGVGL
Test: Test 2: inhibitory activity to the A2B receptor, cAMP HTRF in CHO-K1/ADORA2B/Gα15 cells, NECA 0.1 uM
Format: cell-based
Answer with the figure and its unit, nothing else.

The following molecules have reported results that may help.
| MOLECULE | IC50 |
| --- | --- |
| Cc1c(C#N)cccc1-c1nc(N)c(F)c(-c2cn(Cc3ccn(CCF)n3)nn2)n1 | 0.05 µM |
| Cc1c(C#N)cccc1-c1nc(N)c(F)c(-c2cn(Cc3cccc(C(C)(C)O)n3)nn2)n1 | 0.062 µM |
| Cc1c(C#N)cccc1-c1nc(N)c(F)c(-c2cn(Cc3ccn(C4CCOCC4)n3)nn2)n1 | 0.068 µM |
| Cc1c(C#N)cccc1-c1nc(N)c(F)c(-c2cn(Cc3ccn(CC(F)F)n3)nn2)n1 | 0.064 µM |
| Cc1c(C#N)cccc1-c1nc(N)c(F)c(-c2cn(Cc3nc(C(C)(C)O)ccc3O)nn2)n1 | 0.038 µM |

Exercise: Give its IC50 value. Item: Cc1c(C#N)cccc1-c1cc(-c2cn(Cc3cccc(C(C)(C)O)n3)nn2)nc(N)n1 [Compound D1, reference compound]
Solution: 0.075 µM

----------
// reported IC50 for each item listed
Target: A2A receptor (Homo sapiens)
Construct: host or cells: CHO-K1 (co-expressing Gα15)
Assay: Test 1: inhibitory activity to the A2A receptor, cAMP HTRF in CHO-K1/ADORA2A/Gα15 cells, NECA 50 nM
Format: cell-based
Experimental: Test 1: Inhibitory Activities to the A2A Receptor and the A2B Receptor CHO-K1/ADORA2A/Gα15 (GenScript, M00246) and CHO-K1/ADORA2B/Gα15 (GenScript, M00329) cells were cultured in a Ham's F-12 (Gibco, 31765092) medium containing 10% FBS, Zeocin (200 ug/mL), and Hygromycin B (100 ug/mL), or containing 10% FBS, G418 (400 ug/mL), and Hygromycin B (100 ug/mL) under culture conditions specified in the corresponding instruction. Screening procedure was as follows: 1. […]
Number only, in µM; omit the unit.

Solved cases below.
| COMPOUND | IC50, µM |
| --- | --- |
| Cc1c(C#N)cccc1-c1nc(N)c(F)c(-c2cn(Cc3cccc(C(F)F)n3)nn2)n1 [Compound L-73] | 0.003 |
| Cc1c(C#N)cccc1-c1nc(N)c(F)c(-c2cn(Cc3cccc(C(C)(C)O)n3)nn2)n1 [Compound L-1] | 0.001 |
| Cc1c(C#N)cccc1-c1nc(N)c(F)c(-c2cn(Cc3cccc(N4CCN(C)CC4)n3)nn2)n1 [Compound L-72] | 0.004 |

Please look at the following compound next.
Exercise: Provide value of IC50 for this record tested with A2A receptor (Homo sapiens): Cc1c(C#N)cccc1-c1nc(N)c(F)c(-c2cn(Cc3ccn(C4COC4)n3)nn2)n1 [Compound L-88]
Solution: 0.002

----------
// values below are reported IC50
Molecular target: A2A receptor (Homo sapiens, UniProt P29274)
Construct: host or cells: CHO-K1 (co-expressing Gα15)
Sequence (P29274 whole entry): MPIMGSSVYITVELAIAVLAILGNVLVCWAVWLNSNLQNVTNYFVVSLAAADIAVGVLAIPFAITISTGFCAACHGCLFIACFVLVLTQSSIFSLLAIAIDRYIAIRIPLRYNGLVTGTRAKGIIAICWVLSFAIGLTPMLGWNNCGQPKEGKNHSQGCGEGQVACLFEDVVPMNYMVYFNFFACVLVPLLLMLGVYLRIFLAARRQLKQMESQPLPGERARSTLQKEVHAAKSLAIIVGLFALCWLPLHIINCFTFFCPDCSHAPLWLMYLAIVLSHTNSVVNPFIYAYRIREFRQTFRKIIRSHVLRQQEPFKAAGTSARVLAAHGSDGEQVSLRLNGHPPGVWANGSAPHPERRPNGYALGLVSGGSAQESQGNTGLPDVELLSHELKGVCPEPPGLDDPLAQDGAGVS
Assay: Test 1: inhibitory activity to the A2A receptor, cAMP HTRF in CHO-K1/ADORA2A/Gα15 cells, NECA 50 nM
Format: cell-based
Kindly answer with a numeric value in µM, unit omitted.

| COMPOUND | EXPERIMENTAL_SYSTEM | UNIT_ABBREV | IC50 |
| --- | --- | --- | --- |
| Cc1c(C#N)cccc1-c1nc(N)nc(-c2cn(Cc3cccc(C(C)(C)O)n3)nn2)c1F [Compound L-2] | A2A receptor (Homo sapiens, UniProt P29274) | µM | 0.062 |

Moving on to the next compound.
Exercise: Need IC50, item Cc1c(C#N)cccc1-c1nc(N)c(Cl)c(-c2cn(Cc3cc(C(C)(C)O)n(C)n3)nn2)n1 [Compound L-10]
Solution: 0.004

----------
Biological target: A2B receptor (Homo sapiens)
Construct: host or cells: CHO-K1 (co-expressing Gα15)
Assay: Test 1: inhibitory activity to the A2B receptor, cAMP HTRF in CHO-K1/ADORA2B/Gα15 cells, NECA 10 nM
Format: cell-based
METRIC: IC50 (µM)
Response body: numeric value in µM, unit text excluded.

Some solved entries appear below for comparison.
| COMPOUND | IC50 (µM) |
| --- | --- |
| CC(C)(O)c1cccc(Cn2cc(-c3nc(-c4cccc(C#N)c4F)nc(N)c3F)nn2)n1 | 0.006 |
| COC(C)c1cccc(Cn2cc(-c3nc(-c4cccc(C#N)c4C)nc(N)c3F)nn2)n1 (centres unmarked) | 0.001 |
| Cc1c(C#N)cccc1-c1nc(N)c(Cl)c(-c2cn(Cc3cc(C(C)(C)O)[nH]n3)nn2)n1 | 0.001 |
| Cc1c(C#N)cccc1-c1nc(N)c(Cl)c(-c2cn(Cc3cc[nH]n3)nn2)n1 | 0.012 |
| COCc1cccc(Cn2cc(-c3nc(-c4cccc(C#N)c4C)nc(N)c3F)nn2)n1 | 0.003 |

Exercise: Return reported IC50; argument: `Cc1c(C#N)cccc1-c1nc(N)nc(-c2cn(Cc3cccc(C(C)(C)O)n3)nn2)c1F`
Solution: 0.029

Exercise: GET /values?readout=IC50&item= `Cc1c(F)cccc1-c1nc(N)c(F)c(-c2cn(Cc3cccc(C(C)(C)O)n3)nn2)n1`
Solution: 0.014

Exercise: Which IC50 value belongs to `Cc1c(C#N)cccc1-c1nc(N)c(F)c(-c2cn(Cc3cccc(C(C)C)n3)nn2)n1` ?
Solution: 0.011
